Biological target: BRM (Homo sapiens, UniProt P51531)
Sequence (P51531 whole entry): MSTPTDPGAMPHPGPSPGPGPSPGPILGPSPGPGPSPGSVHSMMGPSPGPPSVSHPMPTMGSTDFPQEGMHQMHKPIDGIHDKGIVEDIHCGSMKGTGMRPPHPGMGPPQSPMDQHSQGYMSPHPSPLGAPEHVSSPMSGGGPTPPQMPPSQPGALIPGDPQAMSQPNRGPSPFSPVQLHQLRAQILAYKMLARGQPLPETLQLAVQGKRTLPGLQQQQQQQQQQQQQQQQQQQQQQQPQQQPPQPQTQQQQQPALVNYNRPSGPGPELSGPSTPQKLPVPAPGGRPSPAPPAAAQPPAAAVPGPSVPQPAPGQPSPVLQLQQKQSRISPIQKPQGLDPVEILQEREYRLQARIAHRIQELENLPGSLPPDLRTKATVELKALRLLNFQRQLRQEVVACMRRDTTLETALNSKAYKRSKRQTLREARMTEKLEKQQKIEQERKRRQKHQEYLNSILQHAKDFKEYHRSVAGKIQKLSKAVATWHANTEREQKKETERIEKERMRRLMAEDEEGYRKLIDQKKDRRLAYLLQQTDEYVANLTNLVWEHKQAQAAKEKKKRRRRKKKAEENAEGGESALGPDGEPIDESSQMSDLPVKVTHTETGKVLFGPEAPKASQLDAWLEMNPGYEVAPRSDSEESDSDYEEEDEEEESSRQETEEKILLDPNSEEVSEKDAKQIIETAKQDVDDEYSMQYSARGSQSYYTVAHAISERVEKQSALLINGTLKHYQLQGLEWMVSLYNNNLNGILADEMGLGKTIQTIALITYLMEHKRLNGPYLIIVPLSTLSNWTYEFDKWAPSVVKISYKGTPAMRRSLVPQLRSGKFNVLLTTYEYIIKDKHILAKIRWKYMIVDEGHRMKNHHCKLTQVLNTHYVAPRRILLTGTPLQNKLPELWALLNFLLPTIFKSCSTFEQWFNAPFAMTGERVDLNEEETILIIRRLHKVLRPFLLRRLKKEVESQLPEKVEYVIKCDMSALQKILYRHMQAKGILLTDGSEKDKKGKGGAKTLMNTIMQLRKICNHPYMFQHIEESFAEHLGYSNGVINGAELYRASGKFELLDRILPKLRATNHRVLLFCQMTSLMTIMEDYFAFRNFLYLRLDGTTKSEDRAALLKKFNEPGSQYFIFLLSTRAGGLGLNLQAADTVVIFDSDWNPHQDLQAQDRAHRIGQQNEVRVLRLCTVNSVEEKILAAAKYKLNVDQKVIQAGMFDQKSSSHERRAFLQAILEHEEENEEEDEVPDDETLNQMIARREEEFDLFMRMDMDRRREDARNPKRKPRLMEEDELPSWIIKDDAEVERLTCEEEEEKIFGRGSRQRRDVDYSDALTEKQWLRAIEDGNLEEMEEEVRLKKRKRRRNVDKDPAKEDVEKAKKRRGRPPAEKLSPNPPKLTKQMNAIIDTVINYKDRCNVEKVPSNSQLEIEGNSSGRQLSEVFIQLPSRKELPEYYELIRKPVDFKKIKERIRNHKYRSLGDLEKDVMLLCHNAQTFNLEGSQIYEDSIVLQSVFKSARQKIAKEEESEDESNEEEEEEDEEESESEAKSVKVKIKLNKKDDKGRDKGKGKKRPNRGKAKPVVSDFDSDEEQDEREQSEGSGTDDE
attributeMeasured: IC50 (nM)

// known answers, use as guide
# compound, targetOrSystem, IC50, nM
records = [
    ("Cc1ccc(-c2ccc3cnc(CNC(=O)c4cc(F)c5c(c4)S(=O)(=O)[C@@H](F)COC5)cc3n2)c(OC(F)F)n1", "BRM (Homo sapiens, UniProt P51531)", 2.8),
    ("CO[C@H]1CN(c2cccc(-c3ccc4cnc(CNC(=O)c5cc(F)c6c(c5)S(=O)(=O)[C@@H](F)COC6)cc4n3)n2)C[C@@H]1F", "BRM (Homo sapiens, UniProt P51531)", 2.5),
    ("O=C(NCc1cc2cc(-c3cncc(N4CCCC4)n3)ccc2cn1)c1cc(F)c2c(c1)S(=O)(=O)[C@@H](F)CCO2", "BRM (Homo sapiens, UniProt P51531)", 3.5),
    ("O=C(NCc1cc2nc(N3CCOc4ccc(C5CC5)nc43)ccc2cn1)c1ccc2c(c1)S(=O)(=O)[C@@H](F)COC2", "BRM (Homo sapiens, UniProt P51531)", 2),
    ("C[C@@H]1CCN1c1cnc2c(c1)OCCN2c1ccc2cnc(CNC(=O)c3cc(Cl)c4c(c3)S(=O)(=O)[C@@H](F)COC4)cc2n1", "BRM (Homo sapiens, UniProt P51531)", 9.6),
]

[P] COc1nc(C(F)F)ccc1-c1ccc2cnc(CNC(=O)c3cc(F)c4c(c3)S(=O)(=O)[C@@H](F)CCO4)c(F)c2n1
[Q] O=C(NCc1cc2cc(-c3cccc([C@@H]4CC4(F)F)n3)ccc2cn1)c1cc(F)c2c(c1)S(=O)(=O)[C@@H](F)CCO2
[R] CN(C)c1cnc2c(c1)OCCN2c1ccc2cnc(CNC(=O)c3cc(F)c4c(c3)S(=O)(=O)[C@@H](F)COC4)cc2n1
[S] C[C@@H]1CN(c2cccc(-c3ccc4cnc(CNC(=O)c5cc(Cl)c6c(c5)S(=O)(=O)[C@@H](F)COC6)cc4n3)n2)C[C@H](C)O1
Order each entry by recorded IC50, climbing from the minimum. Enter labels, ranked according to the request.
R, S, P, Q

[I] CO[C@@H]1CN(c2cccc(-c3ccc4cnc(CNC(=O)c5cc(F)c6c(c5)S(=O)(=O)[C@@H](F)CCO6)cc4n3)n2)C[C@H]1C
[II] O=C(NCc1cc2nc(N3CCOc4cc(C(F)(F)F)cnc43)ccc2cn1)c1cc(F)c2c(c1)S(=O)(=O)[C@@H](F)CCO2
// returns I or II , whichever has the lower IC50 Lab note: record the label of whichever item you select.
I

----------
Target: BRG-1 (Homo sapiens, UniProt P51532)
Sequence (P51532 whole entry): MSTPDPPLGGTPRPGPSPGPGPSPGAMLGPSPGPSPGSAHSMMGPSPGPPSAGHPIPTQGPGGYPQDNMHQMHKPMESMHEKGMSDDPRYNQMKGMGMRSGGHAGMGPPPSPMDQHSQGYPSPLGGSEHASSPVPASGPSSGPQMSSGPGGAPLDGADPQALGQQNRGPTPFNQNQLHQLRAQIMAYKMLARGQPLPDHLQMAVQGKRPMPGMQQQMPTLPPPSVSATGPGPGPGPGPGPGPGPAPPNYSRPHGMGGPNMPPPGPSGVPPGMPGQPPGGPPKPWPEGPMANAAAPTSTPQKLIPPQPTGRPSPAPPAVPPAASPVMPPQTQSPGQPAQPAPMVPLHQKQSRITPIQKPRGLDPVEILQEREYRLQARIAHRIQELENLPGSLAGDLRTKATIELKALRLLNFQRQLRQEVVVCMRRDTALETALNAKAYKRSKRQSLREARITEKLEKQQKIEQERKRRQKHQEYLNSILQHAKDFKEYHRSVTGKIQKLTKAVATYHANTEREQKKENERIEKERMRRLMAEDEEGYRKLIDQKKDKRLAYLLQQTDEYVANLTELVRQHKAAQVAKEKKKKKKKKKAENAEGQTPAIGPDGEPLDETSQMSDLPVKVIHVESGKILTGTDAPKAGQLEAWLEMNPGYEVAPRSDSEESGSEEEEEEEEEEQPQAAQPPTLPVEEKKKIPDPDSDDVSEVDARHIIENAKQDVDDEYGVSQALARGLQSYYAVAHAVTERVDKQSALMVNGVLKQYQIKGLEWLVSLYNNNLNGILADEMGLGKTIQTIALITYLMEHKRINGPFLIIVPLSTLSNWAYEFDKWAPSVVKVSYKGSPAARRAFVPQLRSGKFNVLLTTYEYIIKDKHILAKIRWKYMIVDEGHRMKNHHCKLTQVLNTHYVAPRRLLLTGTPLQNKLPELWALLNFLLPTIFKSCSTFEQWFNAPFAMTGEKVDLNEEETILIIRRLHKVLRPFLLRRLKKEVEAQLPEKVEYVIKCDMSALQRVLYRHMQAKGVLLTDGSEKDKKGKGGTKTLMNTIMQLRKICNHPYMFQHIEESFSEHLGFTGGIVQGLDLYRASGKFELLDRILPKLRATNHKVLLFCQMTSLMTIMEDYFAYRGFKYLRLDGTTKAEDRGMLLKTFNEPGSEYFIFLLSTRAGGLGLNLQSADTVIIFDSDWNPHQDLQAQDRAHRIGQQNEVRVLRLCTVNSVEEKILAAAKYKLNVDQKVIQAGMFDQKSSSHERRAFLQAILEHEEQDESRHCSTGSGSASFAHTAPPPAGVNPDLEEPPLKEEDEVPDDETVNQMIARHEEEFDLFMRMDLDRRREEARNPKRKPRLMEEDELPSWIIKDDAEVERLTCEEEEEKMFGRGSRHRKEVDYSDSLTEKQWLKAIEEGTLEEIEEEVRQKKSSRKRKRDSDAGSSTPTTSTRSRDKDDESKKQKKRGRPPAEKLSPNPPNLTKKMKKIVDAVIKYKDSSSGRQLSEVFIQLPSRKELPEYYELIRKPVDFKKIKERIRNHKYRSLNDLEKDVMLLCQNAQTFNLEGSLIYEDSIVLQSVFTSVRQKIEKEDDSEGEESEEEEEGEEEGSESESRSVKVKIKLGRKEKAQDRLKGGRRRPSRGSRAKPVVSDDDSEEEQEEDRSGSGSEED
attributeMeasured: IC50 (nM)

[A] O=C(NCc1cc2nc(N3CCOc4ccc(N5CCC(F)(F)C5)nc43)ccc2cn1)c1cc(F)c2c(c1)S(=O)(=O)[C@@H](F)CCO2
[B] O=C(NCc1cc2nc(-c3cccc(OC(F)F)n3)ccc2cn1)c1ccc2c(c1)S(=O)(=O)[C@@H](F)CCOC2
Return label of the item with the larger IC50. Candidates: A , B . Lab note: record the label of whichever item you select.
A

[1] COc1nc([C@@H](C)F)ccc1-c1ccc2cnc(CNC(=O)c3cc(F)c4c(c3)S(=O)(=O)[C@@H](F)CCO4)cc2n1
[2] COc1ccc(-c2ccc3cnc(CNC(=O)c4cc(F)c5c(c4)S(=O)(=O)[C@@H](F)CCO5)cc3n2)nc1[C@@H]1CC1(F)F [Compound 144]
// returns 1 or 2 , whichever has the lower IC50 Lab note: record the label of whichever item you select.
2
(2: 109 nM, 1: 274 nM)

[a] C[C@@H]1C[C@H]1c1ccc2c(n1)N(c1ccc3cnc(CNC(=O)c4cc(F)c5c(c4)S(=O)(=O)[C@@H](F)COC5)cc3n1)CCO2
[b] Cc1cc(C(=O)NCc2cc3nc(-c4cccc(N5C[C@@H](C)O[C@@H](C)C5)n4)ccc3cn2)cc2c1COC[C@H](F)S2(=O)=O
// returns a or b , whichever has the lower IC50 Lab note: record the label of whichever item you select.
b
(b: 28.3 nM, a: 46.4 nM)
